# system.tested: Interleukin-8 (IL8, CXCL8), C-terminal His-tagged (Homo sapiens, UniProt P10145 SEQ:1-72)
# Sequence (P10145 28-99): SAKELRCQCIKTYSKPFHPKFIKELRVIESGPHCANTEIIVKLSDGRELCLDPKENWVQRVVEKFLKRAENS
# protocol.notes: TR-FRET; GAG-site binder, displaced by heparan sulfate IC50 9 uM
# recorded.conditions: tags: C-terminal 6xHis (Sino Biological); label: Alexa Fluor 647

binder	Kd [nM]
GGGGGCUUAUCAUUCCAUUUAGUGUUAUGAUAACC (ssRNA, 2'-F C and U, 2'-OH A and G, 5' C6NH2, 3' idT) [Aptamer 1]	3
